Entries and their growth inhibition values follow.
assay: NCI Yeast Anticancer Drug Screen. Data for the mec2-1 strain (AID 157); settings: S. cerevisiae mec2-1 strain, at 50.0 µM, active compounds read high
The panel holds about 79,000 compounds, 15% with a hit somewhere; the sample as a whole holds those more often.
assayEndpoint: growth inhibition (%)

- S=c1cn[nH]c2ccccc12: 40.1
- CCOC(=O)c1[nH]c2ccc(O)c3c2c1CCC3=O: -4.15
- C=CC[N+](C)(CC=C)CC[N+](C)(CC=C)CC=C: 1.35
- C1=CC([P+](Cc2ccccc2)(c2ccccc2)c2ccccc2)CC1 (stereo not given): 65.5
- Nc1ncnc2c1c1c(=O)[nH]c(=O)[nH]c1n2C1OC(CO)C(O)C1O (stereo not given): 1.8
- CC1CCC23C1CC(CC(=O)C2(C)O)C3(C)C (stereo not given): 6
- CCCCN(CCCC)CC(O)c1cc(-c2ccc(Cl)c(Cl)c2)nc2c(Cl)cc(Cl)cc12 (stereo not given): 31.1
- COc1cccc(-c2cc(=O)c3cc(Cl)cnc3[nH]2)c1: 2.7
- O=C(O)c1oc(C(=O)O)c(C(=O)O)c1C(=O)O: -38.1
- CCCCC(CC)CSC[N+](C)(CC)CC (stereo not given): 24.8
- c1csc(-c2cc(-c3ccsc3)c(-c3cccs3)s2)c1: -62.7
- NC(CO)C(O)c1ccc([N+](=O)[O-])cc1 (stereo not given): -33.2
- C[n+]1ccn(S(=O)(=O)[O-])c1: 4.2
- Cc1ccc(S(=O)(=O)Oc2c(Cl)cc(Cl)cc2Cl)cc1: 9.35
- FC(F)/C=C\c1ccccc1: -4.55
- Cc1nc(/C=C2\C(=O)C=Cc3ccccc32)c(O)o1: -6.3
- COc1ccc(/C=C2/CSC/C(=C/c3ccc(OC)c(OC)c3)C2=O)cc1OC: 11.7
- CC1(Br)CC2OC3(Br)C=CC(C)(O)C2(CC1=O)C3(C)C (stereo not given): 10.8
- N#Cc1nccc2ccccc12: -13.3
- O=CC(C(=O)c1ccccc1[N+](=O)[O-])c1ccccc1 (stereo not given): 5.7
- COc1ccc(NC(=O)ON(C)C)cc1: -26.6
- CC(C)(C)NC(=O)CCC1C(C(=O)NC(C)(C)C)C2(Cl)C(Cl)=C(Cl)C1(Cl)C2(Cl)Cl (stereo not given): 12
- CC(Cl)(CCl)C(=O)NCNC(=O)C(C)(Cl)CCl (stereo not given): 3.8
- COc1cc(C(=O)C[n+]2ccccc2)ccc1O: 86.2
- CCCCC(CC)CN(CC)CC (stereo not given): -4.25

====

Entries and their growth inhibition values follow.
assay: NCI Yeast Anticancer Drug Screen. Data for the bub3 strain (AID 167); details: S. cerevisiae bub3 mutant strain, at 50.0 µM, active compounds read high
This is part of a sample that, as a whole, favours compounds with a hit. Of some 79,000 tested, about 15% had one in any assay.
assayEndpoint: growth inhibition (%)

- Cc1ccc(S(=O)(=O)Nn2c(O)c(C#N)c(-c3ccc(N(C)C)cc3)c(C#N)c2=O)cc1: -19.1
- CC(=O)OC1CCC2(C)C(=CC=C3C4CCC(=O)NC4(C)CCC32)C1 (stereo unspecified): -3.6
- CN1C=CCC(C=O)C1 (stereo unspecified): 1.65
- COC(=O)Nc1ccc(NC(=O)c2cscn2)c(NC(=O)OC)n1: 5.75
- CCN(CC)C(=O)c1ccccc1C: -3.85
- COc1cnc(NS(=O)(=O)c2ccc(N)cc2)nc1: -10
